test: inhibition of 3D7 malaria parasite growth – strain 3D7 (AID 2306);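 also: 0% = DMSO wells and 100% = chloroquine plus artemisinin control wells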; conditions: P. falciparum 3D7 erythrocytic growth, LDH absorbance, 72 h; at 2 µM; stronger effect = higher value
# reported growth inhibition; entries follow
Write the answer as a number in %, unit excluded.

Here is how some compounds turned out for growth inhibition.
COc1ccc(NC(=O)/C=C/c2ccc(-c3ccc(-c4noc(C)n4)cc3)cc2)cc1OCCN(C)C ... 81
c1cc(CNCc2ccc3c(c2)OCO3)cc(-c2cccc(CNc3ccc4ncccc4c3)c2)c1 ... 98
Fc1cccc(Nc2nc(NCc3ccc4ccsc4c3)nc(Nc3cccc(F)c3)n2)c1 ... 94
COc1ccc(CNc2ccc3nc(N)nc(N)c3c2)cc1 ... 99
O=C(Nc1ccc(-c2cccc(-c3nc4ccc(C(F)(F)F)cc4[nH]3)c2)cc1)c1ccncc1 ... 101
c1ccc2[nH]c(-c3ccc(-c4ccc(CN5CCCCC5)cc4)cc3)nc2c1 ... 99
COc1ccc(CN2CCCN(Cc3cccc(NC(=O)c4ccc(Cl)c(Cl)c4)c3)CC2)cc1 ... 86
O=C(CCCCCNC(=O)c1ccc(O)c(-c2cccc(C(F)(F)F)c2)c1)NCCN1CCCCC1 ... 99

What value of growth inhibition has been reported for the following compound? "Cc1[nH]c(C)c(-c2ccc(-c3ccc(OC(F)(F)F)cc3)cc2)c(=O)c1Br"
96

Cited source: PubChem BioAssay
